Biological target: Cytochrome P450 2C9 (Homo sapiens) (UniProt P11712)
Sequence (P11712 whole entry, looked up): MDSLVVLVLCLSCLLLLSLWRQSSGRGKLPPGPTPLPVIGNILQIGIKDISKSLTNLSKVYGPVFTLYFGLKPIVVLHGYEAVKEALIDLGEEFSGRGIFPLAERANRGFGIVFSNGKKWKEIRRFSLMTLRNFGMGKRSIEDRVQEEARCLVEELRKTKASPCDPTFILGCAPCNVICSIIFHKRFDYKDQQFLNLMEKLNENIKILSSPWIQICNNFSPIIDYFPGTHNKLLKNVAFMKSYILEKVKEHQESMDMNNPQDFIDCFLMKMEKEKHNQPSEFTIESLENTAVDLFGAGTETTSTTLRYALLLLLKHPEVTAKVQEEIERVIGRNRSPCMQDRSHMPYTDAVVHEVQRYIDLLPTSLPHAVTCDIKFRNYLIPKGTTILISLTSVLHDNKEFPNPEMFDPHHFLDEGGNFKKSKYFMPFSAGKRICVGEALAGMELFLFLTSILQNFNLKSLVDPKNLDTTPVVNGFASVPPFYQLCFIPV
Assay: Cytochrome P450 family 2 subfamily C member 9 (CYP2C9) small molecule antagonists: luciferase biochemical (cell-free) qHTS assay (AID 1645842); note: nearly all actives have a fitted effect of over 55% in size
Conditions: P450-Glo CYP2C9 enzyme assay, luciferin luminescence; series mostly up to 57.4 µM
Records with an inconclusive call do not appear. The source made the active and inactive calls. Calls come from the whole dose curve; as a rule, active = well fitted inhibition curve with a large enough effect in the repeat runs; inconclusive = weak or mixed curves; inactive = no such curve, though single readings can be large or run the other way.
Outcomes you can answer with include only these: True for active, False for inactive

Request: // outcome(item) with item = CCC(CC)C(=O)Nc1sc2c(c1C#N)CCC(C(C)(C)CC)C2 (stereo unspecified)
Result: True

Request: Also CC[C@@H](N)CNc1ccnc(-c2cc(-c3cnn(C)c3)ccc2O)n1 ?
Result: True

Request: Lookup Cc1cc(N2CCN([C@@H]3CN[C@H](C(=O)N4CCSC4)C3)CC2)n(-c2ccccc2)n1
Result: False

Request: Also need NCc1ccc(Nc2ncc(F)c(Nc3ccccc3)n2)cc1 , thanks.
Result: True

Request: Consider next the compound N#Cc1ccc(C(=O)N2CCC3(CC2)N=C(N)c2c(F)ccc(F)c2N3)cn1 in the same way.
Result: False

Request: Then Cn1ncnc1COc1nn2c(-c3cc(F)ccc3F)nnc2cc1C(C)(C)C ?
Result: True

Request: Now consider COc1cc2c(cc1OC)-c1[nH]nc(Nc3cccc(F)c3)c1C2 and answer again.
Result: True

Request: Consider next the compound Cc1oc2ccccc2c1CNC(=O)NCc1cccs1 in the same way.
Result: False

Request: Entry O=C(O)c1cccc(S(=O)(=O)N2CCc3ccccc3C2)c1 please
Result: False

Request: Same read-out for CCOC(=O)c1cc(C#N)c(N2CCC(C(=O)NS(=O)(=O)Cc3ccccc3)CC2)nc1C ?
Result: True

Request: Do the same for O=C(Nc1ccc(S(=O)(=O)Nc2ccccc2Cl)c(Cl)c1)c1ccccn1 please
Result: True

---

Tested on: Tov-21-G
Experiment: Primary qHTS to identify gynecologic anti-cancer compounds using libraries of approved drugs and bioactive compounds (AID 1345084); note: % is set by controls: 0 for no effect and ±100 for the full control effect; nearly all actives have a fitted effect of over 55% in size
Settings: Gynecologic cancer cell panel viability, ATPlite luminescence, 48 h; series mostly up to 57.5 µM
Records with an inconclusive call do not appear. Active and inactive are the calls of the source. Calls follow the shape of the dose curve; as a rule, active = well fitted cell-killing curve with a large enough effect; inconclusive = small, poorly fitted or top-dose-only effect, or effect the other way; inactive = flat fitted curve, though single readings scatter.
Please go through the items and note down their activity change, negative = cytotoxicity.

Request: Given the compound CC1OC(OC2C(C)OC(OC3C(OC(=O)C45CCC(C)(C)CC4C4=CCC6C7(C)CCC(OC8OC(C(=O)O)C(O)C(O)C8OC8OC(CO)C(O)C(OC9OC(C)C(O)C(O)C9O)C8O)C(C)(CO)C7CCC6(C)C4(C)CC5)OC(CO)C(O)C3O)C(O)C2O)C(O)C(O)C1O (centres undefined) , what is its reported activity change, negative = cytotoxicity?
Result: 2.91% [at 6.55 µM] (inactive)

Request: Thanks! And CC(=O)O[C@@H]1[C@H](O[C@@H]2O[C@@H](CO)[C@H](O)[C@H]2O)[C@@H](O[C@@H]2O[C@@H](C)[C@H](O[C@@H]3OC[C@@H](O)[C@H](O)[C@H]3O)[C@@H](O)[C@H]2O)[C@H](OC(=O)[C@]23CCC(C)(C)C[C@H]2C2=CCC4[C@@]5(C)CC[C@H](O[C@@H]6O[C@H](C(=O)O)[C@@H](O)[C@H](O)[C@H]6O[C@@H]6O[C@H](CO)[C@H](O)[C@H](O)[C@H]6O)[C@@](C)(C=O)C5CC[C@@]4(C)[C@]2(C)CC3)O[C@@H]1C (some centres undefined) ?
Result: 4.85% [at 6.55 µM] (inactive)

Request: Field entry: CC1(C)CC[C@]2(C(=O)OC3OC(CO)C(O)C(O)C3O)CC[C@]3(C)C(=CCC4[C@@]5(C)CC[C@H](OC6OC(C(=O)O)C(O)C(OC7OC(CO)C(O)C(O)C7O)C6O)C(C)(C)C5CC[C@]43C)C2C1 (some centres undefined)
Result: -2.48% [at 11.6 µM] (inactive)

Request: Next compound up: CC1(C)CC[C@]2(C(=O)O[C@@H]3O[C@H](CO[C@@H]4O[C@H](CO)[C@@H](O)[C@H](O)[C@H]4O[C@@H]4O[C@H](CO)[C@@H](O)[C@H](O)[C@H]4O)[C@@H](O)[C@H](O[C@@H]4O[C@H](CO)[C@@H](O)[C@H](O)[C@H]4O)[C@H]3O)CC[C@]3(C)C(=CCC4[C@@]5(C)CC[C@@H](O)[C@@](C)(C(=O)O[C@@H]6O[C@H](CO)[C@@H](O)[C@H](O)[C@H]6O)C5CC[C@]43C)[C@@H]2C1 (some centres undefined)
Result: -1.95% [at 6.55 µM] (inactive)
